Compiled notes: published IC50 values involving UniProt O60341.

Reference set, count: 3
COc1ccc(-c2c(-c3ccc(C#N)c(F)c3)nc(N3CCC(N)CC3)c(=O)n2CCCC(N)=O)cc1 : < 0.1 µM
CNC1CCN(c2cnc(-c3ccc(N(C)C)nc3)c(-c3ccc(C#N)c(F)c3)n2)CC1 : < 0.1 µM
NCC1(CN[C@H]2CC2c2ccccc2)CCC1 (stereo partly drawn) : ≤ 0.05 µM

Query string: Name the recorded IC50 for O=C(O)c1ccc(NCC2(CN[C@H]3C[C@@H]3c3ccccc3)CCC2)nc1 .
Result string: 0.1 to 0.5 µM

Query string: Name the recorded IC50 for CN1CCN(c2ccc(-n3nc(C(=O)N4CCC[C@@H](N)C4)cc3-c3ccc(C#N)c(F)c3)c(F)c2)CC1 .
Result string: < 0.5 µM

Query string: Name the recorded IC50 for CCn1cc(C(N)=O)c(=O)c2c(N)c(F)c(NCCN[C@H]3C[C@@H]3c3ccccc3)cc21 (relative stereo) .
Result string: 0.23 µM
